Origin of measurements: PubChem BioAssay AID1159580

test.name: chemical genetic growth profiling, strain panel (AID 1159580);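 note: tested at 20 µM; growth read once vehicle control cultures reached saturation at 30 °C; 1 = growth at the plate median or of vehicle wells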
assay.setup: S. cerevisiae deletion strains, growth OD, locus YLL001W, strain dnm1, stronger effect = lower value
Out of some 5,500 compounds screened, about 2,000 (36%) were called active. Roughly 18% stayed inconclusive and do not appear here. The list shows a part of the results.
test.readout: normalized growth

Worked examples follow.
compound=NC1=NCCN1CC(=O)O result="0.984 (inactive)"
compound="CC(=O)O[C@H]1CC[C@@]2(C)C(C[C@@H](OC(C)=O)[C@@]3(C)C4=CC(=O)O[C@@H](c5ccoc5)[C@]4(C)CCC23)C1(C)C (stereo partly specified)" result="1.01 (inactive)"
compound=CNNC result="1.02 (inactive)"
compound=CCCSc1ccc2nc(NC(=O)OC)[nH]c2c1 result="0.999 (inactive)"
compound=CN(C)C(=O)Oc1cccc([N+](C)(C)C)c1 result="0.988 (inactive)"

In one line, give reported normalized growth of the entry CC(C)c1ccc2c(c1)CCC1C(C)(C(N)=O)CCCC21C (stereo unspecified) .
0.926 (inactive)

In one line, give reported normalized growth of the entry CC1(C)CC2C1CC[C@]1(CBr)CCC3C(CC(=O)O)C(=O)O[C@@]32C1 (stereo partly specified) .
1.03 (inactive)

In one line, give reported normalized growth of the entry `CCOC(=O)[C@H](CCc1ccccc1)N[C@@H](C)C(=O)N1CCC[C@H]1C(=O)O` .
0.981 (inactive)

* * *

test.name: chemical genetic growth profiling, strain panel (AID 1159580);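 note: tested at 20 µM; growth read once vehicle control cultures reached saturation at 30 °C; 1 = growth at the plate median or of vehicle wells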
assay.setup: S. cerevisiae deletion strains, growth OD, locus YNL322C, strain KRE1 (second series), stronger effect = lower value
Screen size: about 5,500 compounds; about 2,000 (36%) were called active. Roughly 18% stayed inconclusive and do not appear here. This is one part of the list.
Sorting guide: entries reporting normalized growth beneath 1 go in the met pile, the rest go in the not met pile.

Study these solved cases before continuing.
smiles_notation=CC(C)=CCc1c2c(c3occ(-c4ccc(O)cc4)c(=O)c3c1O)C=CC(C)(C)O2 qualitative_label="not met"
smiles_notation=Cc1scc2c1N(C(=O)CN1CCN(C)CC1)c1ccccc1NC2=O qualitative_label=met
smiles_notation=CC(=O)N[C@@H](Cc1c[nH]c2ccccc12)C(N)=O qualitative_label="not met"

Field: below-cutoff. Rule: recorded normalized growth strictly less than 1. Subject: `CC(=O)c1ccc(O)c(CC=C(C)C)c1`
met

* * *

Reported normalized growth values follow for various molecules
test.name: chemical genetic growth profiling, strain panel (AID 1159580);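 note: tested at 20 µM; growth read once vehicle control cultures reached saturation at 30 °C; 1 = growth at the plate median or of vehicle wells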
assay.setup: S. cerevisiae deletion strains, growth OD, locus YLL041C, strain sdh2, stronger effect = lower value
About 2,000 (36%) of roughly 5,500 compounds were called active. About 18% were inconclusive and are not listed. The list shows a part of the results.
The answer should be a number; do not append a unit.

molecule="CC(C)CCCC(C)C1CCC2C3=CC[C@H]4C[C@@H](O)CC[C@]4(C)C3CC[C@@]21C (some centres undefined)" measured_number=0.975

In one line, give reported normalized growth of the entry CCC(C)[C@H]1O[C@]2(C=C[C@@H]1C)C[C@@H]1C[C@@H](C/C=C(\C)[C@@H](OC3C[C@H](OC)C(O[C@H]4C[C@H](OC)[C@@H](O)[C@H](C)O4)[C@H](C)O3)[C@@H](C)/C=C/C=C3\CO[C@@H]4[C@H](O)C(C)=C[C@@H](C(=O)O1)[C@]34O)O2 (some centres undefined) .
0.98

In one line, give reported normalized growth of the entry `Cc1cc(=O)[nH]c(=S)[nH]1` .
0.978

In one line, give reported normalized growth of the entry `CN[C@@H]1[C@H](O)[C@H](NC)[C@H]2O[C@@]3(O)C(=O)C[C@@H](C)O[C@H]3O[C@@H]2[C@H]1O` .
0.999

In one line, give reported normalized growth of the entry `COc1cc(C/C=C/c2ccccc2)c(OC)cc1O` .
0.949

In one line, give reported normalized growth of the entry `CN(C)C(=O)Oc1cccc([N+](C)(C)C)c1` .
1.01

In one line, give reported normalized growth of the entry `Cc1cc(=O)oc2cc(O)cc(O)c12` .
0.977

In one line, give reported normalized growth of the entry `O=C(O)C1=CCCNC1` .
0.987

In one line, give reported normalized growth of the entry O=P1(NCCCl)OCCCN1CCCl (centres undefined) .
0.987
